Ref: patent US10513534B2

- Assay comment: Plasma nucleoside pharmacokinetics after single oral dose in CD-1 mice;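 as to Ms Plasma nucleoside AUC: pmol·h/mL plasma normalized to a 1 µmol/kg dose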
- Assay type: in vivo
- Condition notes: single oral dose 10 mg/kg in PEG 200

- Molecule: "C[C@@]1(Cl)[C@H](O)[C@@H](CO)O[C@H]1n1ccc(=O)[nH]c1=O"
  Ms Plasma nucleoside AUC: "+++ (500 < +++ ≤ 1500)"
- Molecule: "CC(C)OP1(=O)OC[C@H]2O[C@@H](n3ccc(=O)[nH]c3=O)[C@](C)(Cl)[C@@H]2O1 (single isomer, unassigned) [Compound 37 Diastereomer 1]"
  Ms Plasma nucleoside AUC: "+++ (500 < +++ ≤ 1500)"
- Molecule: "CC(C)OC(=O)[C@H](C)NP(=O)(OC[C@H]1O[C@@H](n2ccc(=O)[nH]c2=O)[C@](C)(Cl)[C@@H]1O)Oc1ccccc1 (single isomer, unassigned) [Compound 40ii Diastereomer 2]"
  Ms Plasma nucleoside AUC: "+++ (500 < +++ ≤ 1500)"

* * *

- Assay comment: Plasma nucleoside pharmacokinetics after single oral dose in CD-1 mice
- Format: in vivo
- Condition notes: single oral dose 10 mg/kg in PEG 200

- Compound: "CC(C)(C)C(=O)SCCOP1(=O)OC[C@H]2O[C@@H](n3ccc(N)nc3=O)[C@](C)(Cl)[C@@H]2O1 (single isomer, unassigned) [Compound 61 Diastereomer 2]"
  Ms Plasma nucleoside Cmax: "+ (+ ≤ 15)"
- Compound: "C[C@@H](NP(=O)(OC[C@H]1O[C@@H](n2ccc(=O)[nH]c2=O)[C@](C)(Cl)[C@@H]1O)Oc1ccccc1)C(=O)OCc1ccccc1 (single isomer, unassigned) [Compound 205i Diastereomer 2]"
  Ms Plasma nucleoside Cmax: "+++ (50 < +++ ≤ 100)"
- Compound: "CC(C)OC(=O)[C@H](C)NP(=O)(OC[C@H]1O[C@@H](n2ccc(=O)[nH]c2=O)[C@](C)(Cl)[C@@H]1O)Oc1ccccc1 (single isomer, unassigned) [Compound 40ii Diastereomer 2]"
  Ms Plasma nucleoside Cmax: "+++ (50 < +++ ≤ 100)"
- Compound: "CCOC(=O)[C@H](CC(C)C)NP(=O)(OC[C@H]1O[C@@H](n2ccc(=O)[nH]c2=O)[C@](C)(Cl)[C@@H]1O)Oc1ccccc1 (single isomer, unassigned; diastereomer 1) [Compound 204ii Diastereomer 1]"
  Ms Plasma nucleoside Cmax: "+++ (50 < +++ ≤ 100)"
- Compound: "CC(C)C(=O)OC[C@H](C)NP1(=O)OC[C@H]2O[C@@H](n3cnc4c(N)ncnc43)[C@](C)(Cl)[C@@H]2O1 (single isomer, unassigned; diastereomer 1) [Compound 95i Diastereomer 1]"
  Ms Plasma nucleoside Cmax: "+ (+ ≤ 15)"
- Compound: "CC(C)OP1(=O)OC[C@H]2O[C@@H](n3ccc(=O)[nH]c3=O)[C@](C)(Cl)[C@@H]2O1 (single isomer, unassigned) [Compound 37 Diastereomer 1]"
  Ms Plasma nucleoside Cmax: "+++ (50 < +++ ≤ 100)"
- Compound: "CCOC(=O)[C@H](C)NP(=O)(OC[C@H]1O[C@@H](n2ccc(=O)[nH]c2=O)[C@](C)(Cl)[C@@H]1O)Oc1ccccc1 (single isomer, unassigned; diastereomer 1) [Compound 203ii Diastereomer 1]"
  Ms Plasma nucleoside Cmax: "+++ (50 < +++ ≤ 100)"
- Compound: "CC(C)OC(=O)[C@H](C)NP1(=O)OC[C@H]2O[C@@H](n3cnc4c(N)ncnc43)[C@](C)(Cl)[C@@H]2O1 (single isomer, unassigned; diastereomer 2) [Compound 77ii Diastereomer 2]"
  Ms Plasma nucleoside Cmax: "+ (+ ≤ 15)"

* * *

- Assay comment: Plasma nucleoside pharmacokinetics after single oral dose in CD-1 mice;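 as to Ms Plasma nucleoside AUC: pmol·h/mL plasma normalized to a 1 µmol/kg dose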
- Type: in vivo
- Condition notes: single oral dose 10 mg/kg in PEG 200
Observation type: Ms Plasma nucleoside AUC

- Compound: "CC(C)OC(=O)[C@H](C)NP1(=O)OC[C@H]2O[C@@H](n3cnc4c(N)ncnc43)[C@](C)(Cl)[C@@H]2O1 (single isomer, unassigned; diastereomer 2) [Compound 77ii Diastereomer 2]"
  Reported value: "+ (+ ≤ 150)"
- Compound: "CCOC(=O)[C@H](CC(C)C)NP(=O)(OC[C@H]1O[C@@H](n2ccc(=O)[nH]c2=O)[C@](C)(Cl)[C@@H]1O)Oc1ccccc1 (single isomer, unassigned; diastereomer 1) [Compound 204ii Diastereomer 1]"
  Reported value: "+++ (500 < +++ ≤ 1500)"
- Compound: "CCOC(=O)NCC(C)(C)C(=O)SCCOP1(=O)OC[C@H]2O[C@@H](n3ccc(=O)[nH]c3=O)[C@](C)(Cl)[C@@H]2O1 (single isomer, unassigned) [Compound 70 Single Diastereomer]"
  Reported value: "++++ (1500 < ++++)"
- Compound: "CC(C)(C)C(=O)SCCOP1(=O)OC[C@H]2O[C@@H](n3ccc(=O)[nH]c3=O)[C@](C)(Cl)[C@@H]2O1 (single isomer, unassigned) [Compound 201 Single Diastereomer]"
  Reported value: "+++ (500 < +++ ≤ 1500)"
- Compound: "CC(C)(C)C(=O)SCCOP1(=O)OC[C@H]2O[C@@H](n3ccc(N)nc3=O)[C@](C)(Cl)[C@@H]2O1 (single isomer, unassigned) [Compound 61 Diastereomer 1]"
  Reported value: "+ (+ ≤ 150)"
- Compound: "CCOC(=O)[C@H](CC(C)C)NP(=O)(OC[C@H]1O[C@@H](n2ccc(=O)[nH]c2=O)[C@](C)(Cl)[C@@H]1O)Oc1ccccc1 (single isomer, unassigned; diastereomer 2) [Compound 204ii Diastereomer 2]"
  Reported value: "++++ (1500 < ++++)"
- Compound: "CC(C)C(=O)OC[C@H](C)NP1(=O)OC[C@H]2O[C@@H](n3cnc4c(N)ncnc43)[C@](C)(Cl)[C@@H]2O1 (single isomer, unassigned; diastereomer 1) [Compound 95i Diastereomer 1]"
  Reported value: "+ (+ ≤ 150)"
- Compound: "CCOC(=O)[C@H](C)NP(=O)(OC[C@H]1O[C@@H](n2ccc(=O)[nH]c2=O)[C@](C)(Cl)[C@@H]1O)Oc1ccccc1 (single isomer, unassigned; diastereomer 1) [Compound 203ii Diastereomer 1]"
  Reported value: "+++ (500 < +++ ≤ 1500)"
- Compound: "C[C@@H](NP(=O)(OC[C@H]1O[C@@H](n2ccc(=O)[nH]c2=O)[C@](C)(Cl)[C@@H]1O)Oc1ccccc1)C(=O)OCc1ccccc1 (single isomer, unassigned) [Compound 205i Diastereomer 1]"
  Reported value: "+++ (500 < +++ ≤ 1500)"
- Compound: "CCCCOC(=O)[C@H](C)NP(=O)(OC[C@H]1O[C@@H](n2ccc(=O)[nH]c2=O)[C@](C)(Cl)[C@@H]1O)Oc1ccccc1 (single isomer, unassigned; diastereomer 2) [Compound 202ii Diastereomer 2]"
  Reported value: "++++ (1500 < ++++)"
- Compound: "CC(C)(CO)C(=O)SCCOP(=O)(NCc1ccccc1)OC[C@H]1O[C@@H](n2ccc(=O)[nH]c2=O)[C@](C)(Cl)[C@@H]1O (single isomer, unassigned) [Compound 54 Diastereomer 1]"
  Reported value: "+++ (500 < +++ ≤ 1500)"
- Compound: "CC(C)OC(=O)[C@H](C)NP1(=O)OC[C@H]2O[C@@H](n3ccc(=O)[nH]c3=O)[C@](C)(Cl)[C@@H]2O1 (single isomer, unassigned; diastereomer 2) [Compound 38ii Diastereomer 2]"
  Reported value: "+++ (500 < +++ ≤ 1500)"
- Compound: "CC(C)(C)C(=O)SCCOP1(=O)OC[C@H]2O[C@@H](n3ccc(N)nc3=O)[C@](C)(Cl)[C@@H]2O1 (single isomer, unassigned) [Compound 61 Diastereomer 2]"
  Reported value: "+ (+ ≤ 150)"
- Compound: "CCOC(=O)[C@H](C)NP(=O)(OC[C@H]1O[C@@H](n2ccc(=O)[nH]c2=O)[C@](C)(Cl)[C@@H]1O)Oc1ccccc1 (single isomer, unassigned; diastereomer 2) [Compound 203ii Diastereomer 2]"
  Reported value: "+++ (500 < +++ ≤ 1500)"
- Compound: "CC(C)OC(=O)[C@@H](C)NP(=O)(OC[C@H]1O[C@@H](n2ccc(=O)[nH]c2=O)[C@](C)(Cl)[C@@H]1O)Oc1ccccc1 (single isomer, unassigned; diastereomer 1) [Compound 40i Diastereomer 1]"
  Reported value: "+++ (500 < +++ ≤ 1500)"
- Compound: "CC(C)OC(=O)[C@H](C)NP1(=O)OC[C@H]2O[C@@H](n3ccc(=O)[nH]c3=O)[C@](C)(Cl)[C@@H]2O1 (single isomer, unassigned; diastereomer 1) [Compound 38ii Diastereomer 1]"
  Reported value: "+++ (500 < +++ ≤ 1500)"
- Compound: "CC(C)OC(=O)[C@@H](C)NP(=O)(OC[C@H]1O[C@@H](n2ccc(=O)[nH]c2=O)[C@](C)(Cl)[C@@H]1O)SC1CCCC1 (single isomer, unassigned; diastereomer 2) [Compound 206i Diastereomer 2]"
  Reported value: "+++ (500 < +++ ≤ 1500)"
